The measurements presented in this section are drawn from a melting point compilation (Tetko et al.; mined from patent text by program, amines drawn as free bases though some values may be those of a salt).

Task for the reader: assign each of the following compounds its reported melting point.

Known results for compounds:
Nc1cccc(C(O)c2cc3c(Oc4ccc(Cl)cc4)cncc3s2)c1 (centres undefined) ... 73 to 78 °C
c1cc(-c2ccc(N3CCNCC3)nc2)nc(Nc2ccc3[nH]nnc3c2)n1 ... 280 to 283 °C
COc1cc(C)c(C)c2c1CCC2=O ... 127 to 128 °C

For every listed record, write down its melting point.
1. O=C(O)CCCn1nc(-c2c(-c3ccccc3)nn3ccccc23)ccc1=O
2. CCCCCCCCCCCCCCCCO[C@@H]1CCCO[C@H]1CO (relative stereo)
3. Cc1oc(-c2ccccc2)nc1COc1ccc(Cn2cc(CCC(=O)O)c(-c3ccccc3)c2)cc1

1: 240 °C; 2: 41 to 42 °C; 3: 124 to 125 °C

Count: 3. Required value per item: melting point.
1. CCOC(=O)CN1CCN(c2cccc(C3=NC(C)(C)Cc4cc(OC)c5c(c43)CC(C)(C)O5)c2)S1(=O)=O
2. O=C(Nc1nccs1)C(CC1CCCC1)c1ccc(Cl)c(Cl)c1 (centres undefined)
3. CC(C(=O)N(C)C)n1cc(-c2ccccc2)c(-c2ccccc2)n1 (centres undefined)

["153 to 155 °C", "120 to 122 °C", "122 to 124 °C"]
